Measured activity, negative = cytotoxicity by item
# assay_name: qHTS assay to identify small molecule antagonists of the retinoid-related orphan receptor gamma (ROR-gamma) signaling pathway - cell viability counter screen (AID 1159520); note: % is set by controls: 0 for no effect and ±100 for the full control effect; nearly all actives have a fitted effect of over 50% in size
# test_context: Tet-on RORgamma CHO cells viability, ATP luminescence, 16 h; series mostly up to 92.4 µM
# Method: U.S. Tox21 Program National Center for Advancing Translational Sciences [NCATS] NIH Chemical Genomics Center [NCGC] U.S. Environmental Protection Agency [EPA] National Institutes of Environmental Health Sciences [NIEHS] National Toxicology Program [NTP] U.S. Food and Drug Administration [FDA] […] Reporter gene activity was induced using Doxycycline Hyclate and measured after 16 hr incubation. […]
Inconclusive results are not listed. The source made the active and inactive calls. Calls come from the whole dose curve; as a rule, active = well fitted cell-killing curve with a large enough effect in the repeat runs; inconclusive = weak or mixed curves, or effect the other way; inactive = no such curve, though single readings can be large or run the other way.

Examples with answers:
smiles_str=CCCCCCCCCCCCCCN(C)C reported_measurement="0.214% [at 19 µM] (inactive)"
smiles_str=CC1=CC[C@@H]2C[C@H]1C2(C)C reported_measurement="2.52% [at 19 µM] (inactive)"
smiles_str=CCCCCCCCCCCCCOC(=O)CCSCCC(=O)OCCCCCCCCCCCCC reported_measurement="0.433% [at 19 µM] (inactive)"

Moving on to another compound below.
Quick one: activity, negative = cytotoxicity for c1ccc2sc(SSc3nc4ccccc4s3)nc2c1 ?
-8.11% [at 19 µM] (inactive)

* * *

# assay_name: qHTS assay to identify small molecule that activate the aryl hydrocarbon receptor (AhR) signaling pathway - cell viability counter screen (AID 743086);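 note: HepG2 liver cells carrying the AhR DRE luciferase reporter; % is set by controls: 0 for no effect and ±100 for the full control effect; nearly all actives have a fitted effect of over 45% in size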
# test_context: HepG2-AhR-luc viability, CellTiter-Fluor, 24 h; series mostly up to 70.3 µM
Records with an inconclusive call do not appear. The source made the active and inactive calls. The call rests on the fitted dose curve; in most records, active means well fitted cell-killing curve with a large enough effect in the repeat runs; inconclusive means weak or mixed curves, or effect the other way; inactive means flat fitted curve, though single readings scatter.
Output constraint: value belongs to active, inactive

Consider the worked cases shown below.
compound=CC[C@H]1OC(=O)[C@H](C)[C@@H](O[C@H]2C[C@@](C)(OC)[C@@H](O)[C@H](C)O2)[C@H](C)[C@@H](O[C@@H]2O[C@H](C)C[C@H](N(C)C)[C@H]2O)[C@](C)(O)C[C@@H](C)C(=O)[C@H](C)[C@@H](O)[C@]1(C)O class_label=inactive
compound=O=C(O)c1cccc(C[C@@H]2COc3ccc(OCc4nc5cc(F)ccc5s4)cc3[C@@H]2O)c1 class_label=inactive
compound="CCCCCCCCCCCCCCCCCC(=O)OCC(CC)CCCC (stereo not given)" class_label=inactive

So what was the verdict on O=C(O)CCCc1c[nH]c2ccccc12 in this test?
inactive

What is the recorded call for this compound in the test? Nc1c(Cl)cc(Cl)cc1[N+](=O)[O-]
inactive

Recorded test outcome, item CCN(CC)CCOc1ccccc1C(=O)CCc1ccccc1
inactive

Tell me the recorded outcome of this test for CCCCCc1ccco1 .
inactive

Hello, I am checking results. What call was entered for CCOC(=O)c1ccc(NC(=O)CN2CCCCC2)cc1 ?
inactive

Which outcome did this test record for the compound CC(=O)NCCO ?
inactive

* * *

# assay_name: qHTS assay to test for compound auto fluorescence at 535 nm (green) in HEK293 cell free culture (AID 720682); note: % is set by controls: 0 for no effect and ±100 for the full control effect
# test_context: cell-free medium, green autofluorescence 485/535 nm, active compounds read high; series mostly up to 91.3 µM
Calls of active or inactive are those of the source. The call rests on the fitted dose curve; in most records, active means well fitted curve in the direction sought with a large enough effect in the repeat runs; inconclusive means weak or mixed curves; inactive means flat fitted curve, though single readings scatter.
result_type: activity change

compound="CNC1CCCN(c2c(F)cc3c(=O)c(C(=O)O)cn(C4CC4)c3c2OC)C1 (stereo unspecified)" result_type="activity change" reported_measurement=inactive
compound=CCN(CC)c1ccc(C(=C2C=CC(=[N+](CC)CC)C=C2)c2ccc(S(=O)(=O)O)cc2S(=O)(=O)[O-])cc1 result_type="activity change" reported_measurement=inactive
compound=CCOCCC(=O)OCC result_type="activity change" reported_measurement=inactive
compound=CCN(CC)CCOc1ccccc1C(=O)CCc1ccccc1 result_type="activity change" reported_measurement=inactive
compound=COC(C)(C)OC result_type="activity change" reported_measurement=inactive

Let's switch to this compound now.
# get_value(readout='activity change', item= COc1ccc2nc(S(=O)Cc3ncc(C)c(OC)c3C)[nH]c2c1 (stereo unspecified) )
inactive

* * *

# assay_name: qHTS assay to identify small molecule antagonists of the vitamin D receptor (VDR) signaling pathway - cell viability counter screen (AID 743225); note: nearly all actives have a fitted effect of over 50% in size
# test_context: VDR-bla HEK293T viability, CellTiter-Glo luminescence, 16 h; series mostly up to 61 µM
Results filed as inconclusive are left out. Active and inactive are the calls of the source. The call rests on the fitted dose curve; in most records, active means well fitted cell-killing curve with a large enough effect in the repeat runs; inconclusive means weak or mixed curves, or effect the other way; inactive means no such curve, though single readings can be large or run the other way.
API: response.call in class 1 for active, class 0 for inactive

Would you please look over these solved cases?
compound=O=c1[nH][nH]c(=O)c2cc([N+](=O)[O-])ccc12 class_label="class 0"
compound=CCCCCCCC(=O)OCCCCCC class_label="class 0"
compound="CCO[Si](C)(CCCOCC1CO1)OCC (stereo unspecified)" class_label="class 0"
compound=O=C(/C=C/c1ccc([N+](=O)[O-])cc1)c1ccccc1 class_label="class 0"
compound=CCCc1nc2c(C)cc(-c3nc4ccccc4n3C)cc2n1Cc1ccc(-c2ccccc2C(=O)O)cc1 class_label="class 0"

# lookup: test call for CC[C@H]1OC(=O)[C@H](C)[C@@H](O[C@H]2C[C@@](C)(OC)[C@@H](O)[C@H](C)O2)[C@H](C)[C@@H](O[C@@H]2O[C@H](C)C[C@H](N(C)C)[C@H]2O)[C@](C)(O)C[C@@H](C)CN(C)[C@H](C)[C@@H](O)[C@]1(C)O
class 1

Dear colleague, could you share the recorded outcome for ClC1=C(Cl)C1(Cl)Cl when you have a moment?
class 0

Please let me know the test result on file for CC(=O)C(=O)CC(C)C .
class 0

Could you kindly confirm the outcome this assay logged for C/C(C=O)=C\c1ccccc1 ?
class 0

Could you kindly confirm the outcome this assay logged for CCc1ccc(C)cc1 ?
class 0

Per the records of this test, what outcome belongs to CC(C)(O)CCc1ccccc1 ?
class 0

* * *

# target_of_assay: Cytochrome P450 3A4 (Homo sapiens) (UniProt P08684)
# Sequence (P08684 whole entry, looked up): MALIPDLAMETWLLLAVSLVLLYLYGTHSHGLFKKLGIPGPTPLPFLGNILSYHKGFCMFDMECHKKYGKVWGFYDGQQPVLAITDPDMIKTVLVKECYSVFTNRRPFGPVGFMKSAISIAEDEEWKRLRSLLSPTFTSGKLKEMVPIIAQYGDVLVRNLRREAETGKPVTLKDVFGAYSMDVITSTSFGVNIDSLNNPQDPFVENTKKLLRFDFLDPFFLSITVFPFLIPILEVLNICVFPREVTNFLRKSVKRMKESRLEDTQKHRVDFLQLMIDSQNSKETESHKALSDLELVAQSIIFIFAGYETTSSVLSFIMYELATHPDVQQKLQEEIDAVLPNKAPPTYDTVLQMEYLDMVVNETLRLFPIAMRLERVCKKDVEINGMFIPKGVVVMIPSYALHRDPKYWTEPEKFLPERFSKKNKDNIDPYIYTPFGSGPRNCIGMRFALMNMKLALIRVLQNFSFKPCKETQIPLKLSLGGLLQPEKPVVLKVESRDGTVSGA
# assay_name: Cytochrome P450 Family 3 Subfamily A Member 4 (CYP3A4) small molecule antagonists: luciferase reporter qHTS assay (AID 1671201); note: nearly all actives have a fitted effect of over 50% in size
# test_context: P450-Glo CYP3A4 enzyme, luciferin luminescence, 1 h; series mostly up to 115 µM
Inconclusive results are not listed. Activity calls are given as the source filed them. Calls come from the whole dose curve; as a rule, active = well fitted inhibition curve with a large enough effect in the repeat runs; inconclusive = weak or mixed curves; inactive = no such curve, though single readings can be large or run the other way.
Hi there, use one of these labels in your reply, thanks! y (active), n (inactive)

compound=CC[C@H]1OC(=O)[C@H](C)[C@@H](O[C@H]2C[C@@](C)(OC)[C@@H](O)[C@H](C)O2)[C@H](C)[C@@H](O[C@@H]2O[C@H](C)C[C@H](N(C)C)[C@H]2O)[C@](C)(O)C[C@@H](C)/C(=N\OCOCCOC)[C@H](C)[C@@H](O)[C@]1(C)O class_label=y
compound=CCCCCCCCCCCCCOS(=O)(=O)O class_label=n
compound=COc1cc(S(=O)(=O)Nc2ccccc2)c(OC)cc1N class_label=y
compound=CCCCCCCC(=O)OCCCCCC class_label=n
compound=O=S(=O)(Cl)c1c(Cl)cccc1Cl class_label=n

Now, please, on to the next compound.
// return assay outcome for Cc1ccc2c(c1)CCCN2
n

* * *

# assay_name: qHTS RealTime-Glo MT Cell Viability Assay in HepG2 cells - 40 hour (AID 1224870); note: nearly all actives have a fitted effect of over 50% in size
# test_context: RealTime-Glo luminescence; series mostly up to 76.8 µM
Results filed as inconclusive are left out. Activity calls are given as the source filed them. Calls come from the whole dose curve; as a rule, active = well fitted cell-killing curve with a large enough effect in the repeat runs; inconclusive = weak or mixed curves, or effect the other way; inactive = flat fitted curve, though single readings scatter.
Your response should consist of one outcome taken from active, inactive

Completed entries (count: 3):
molecule=CC(C)(O)c1coc(S(=O)(=O)NC(=O)Nc2c3c(cc4c2CCC4)CCC3)c1 class_label=inactive
molecule="C[C@@H]1[C@H](O)[C@@H](C)/C=C/C=C\\C=C\\C=C\\C=C\\C=C\\C=C\\[C@H](O[C@@H]2O[C@H](C)[C@@H](O)[C@H](N)[C@@H]2O)C[C@@H]2O[C@](O)(C[C@@H](O)C[C@@H](O)[C@H](O)CC[C@@H](O)C[C@@H](O)CC(=O)O[C@H]1C)C[C@H](O)[C@H]2C(=O)O (stereo in doubt)" class_label=inactive
molecule="c1ccc(CNc2ncnc3c2ncn3C2CCCCO2)cc1 (centres undefined)" class_label=inactive

Attention now shifts to the item below.
Recorded test outcome, item O=[N+]([O-])C1(Br)COCOC1
active

* * *

# assay_name: qHTS RealTime-Glo MT Cell Viability Assay in HEK293 cells - 8 hour (AID 1224887)
# test_context: RealTime-Glo luminescence; series mostly up to 76.8 µM
# Source text: U.S. Tox21 Program National Center for Advancing Translational Sciences [NCATS] NIH Chemical Genomics Center [NCGC] U.S. Environmental Protection Agency [EPA] National Institutes of Environmental Health Sciences [NIEHS] National Toxicology Program [NTP] U.S. Food and Drug Administration [FDA] Tox21 Assay Overview: Measure of cell viability is critical in the cell-base assay. Analysis of cell viability is necessary for the characterization of cell responses to cytotoxic drugs and environmental stress. […]
Records with an inconclusive call do not appear. Activity calls are given as the source filed them. The call rests on the fitted dose curve; in most records, active means well fitted cell-killing curve with a large enough effect in the repeat runs; inconclusive means weak or mixed curves, or effect the other way; inactive means flat fitted curve, though single readings scatter.
Your response should consist of one outcome taken from active, inactive

Sample answers from the record:
compound=Cc1cccc2sc(N)nc12 class_label=inactive
compound=[Cl][Nd]([Cl])[Cl] class_label=inactive
compound=Cc1ccc2nc(N)[nH]c(=O)c2c1Sc1ccncc1 class_label=inactive
compound=CC(C)CC(O)CC(C)C class_label=inactive
compound=C=C(C)c1ccccc1 class_label=inactive
compound="COC(CC(C)CCCC(C)(C)O)OC (centres undefined)" class_label=inactive
compound=O=C(O)c1ccc(O)cc1O class_label=inactive
compound="CCCCCCCCCCCCCCCCCC(=O)OCC(CC)CCCC (centres undefined)" class_label=inactive

Can you look up the reported call for O=C1OC(=O)c2c(Br)c(Br)c(Br)c(Br)c21 for me?
inactive

So what was the verdict on OCC(CO)n1cnc(-c2ccc(F)cc2)c1-c1ccnc(Oc2ccccc2)n1 in this test?
inactive

Please indicate how the test categorized CC[C@H]1OC(=O)[C@H](C)[C@@H](O[C@H]2C[C@@](C)(OC)[C@@H](O)[C@H](C)O2)[C@H](C)[C@@H](O[C@@H]2O[C@H](C)C[C@H](N(C)C)[C@H]2O)[C@](C)(O)C[C@@H](C)CN(C)[C@H](C)[C@@H](O)[C@]1(C)O .
inactive

Write down the call the test reported for this compound. Item: CC(C)(C)C(O)/C=C/c1ccc2c(c1)OCO2 (centres undefined)
inactive

// outcome(item) with item = CC(C)(C)C1(CCc2ccc(Cl)cc2)CO1 (centres undefined)
inactive

Lab log entry: COC(C)(C)OC — outcome as called in the assay?
inactive
